# STUDY_SYSTEM: XCR1 (Homo sapiens, UniProt P46094)
# Construct: expressed in transfected cells
# Sequence (P46094 whole entry): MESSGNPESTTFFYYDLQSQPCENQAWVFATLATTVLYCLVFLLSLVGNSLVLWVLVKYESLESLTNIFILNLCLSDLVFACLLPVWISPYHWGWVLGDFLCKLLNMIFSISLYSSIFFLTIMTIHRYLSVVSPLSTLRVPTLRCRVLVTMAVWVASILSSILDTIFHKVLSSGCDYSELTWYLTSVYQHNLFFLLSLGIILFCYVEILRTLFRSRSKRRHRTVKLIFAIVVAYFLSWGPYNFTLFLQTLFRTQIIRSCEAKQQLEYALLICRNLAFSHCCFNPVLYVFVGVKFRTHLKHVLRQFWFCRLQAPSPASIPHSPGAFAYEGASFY
# METHOD_DESCRIPTION: Figure S2a opioid peptide screen on chemokine receptors
# Assay type: cell-based
# Set-up: dose or concentration left out as unconfirmed
# CONDITION_INFO: replicate 1, read-out: XCR1 activity, ctrl+ = 100
OBSERVABLE: activation
Note to self: number, then unit, no commentary.

C[C@H](NC(=O)CNC(=O)[C@@H](NC(=O)[C@H](Cc1ccccc1)NC(=O)CNC(=O)CNC(=O)[C@@H](N)Cc1ccccc1)[C@@H](C)O)C(=O)N[C@@H](CCCNC(=N)N)C(=O)N[C@@H](CCCCN)C(=O)N[C@@H](CO)C(=O)N[C@@H](C)C(=O)N[C@@H](CCCNC(=N)N)C(=O)N[C@@H](CCCCN)C(N)=O :: 2.91%

Asked: XCR1 (Homo sapiens, UniProt P46094) / activation / CSCC[C@H](NC(=O)[C@H](Cc1ccccc1)NC(=O)CNC(=O)CNC(=O)[C@@H](N)Cc1ccc(O)cc1)C(=O)N[C@@H](CCCNC(=N)N)C(=O)N[C@@H](CCCNC(=N)N)C(=O)N[C@H](C(N)=O)C(C)C : value?
Given back: -2.07%

----------
# STUDY_SYSTEM: CXCR3A (Homo sapiens)
# Construct: expressed in transfected cells; host or cells: U87 cells
# Sequence (P49682 whole entry): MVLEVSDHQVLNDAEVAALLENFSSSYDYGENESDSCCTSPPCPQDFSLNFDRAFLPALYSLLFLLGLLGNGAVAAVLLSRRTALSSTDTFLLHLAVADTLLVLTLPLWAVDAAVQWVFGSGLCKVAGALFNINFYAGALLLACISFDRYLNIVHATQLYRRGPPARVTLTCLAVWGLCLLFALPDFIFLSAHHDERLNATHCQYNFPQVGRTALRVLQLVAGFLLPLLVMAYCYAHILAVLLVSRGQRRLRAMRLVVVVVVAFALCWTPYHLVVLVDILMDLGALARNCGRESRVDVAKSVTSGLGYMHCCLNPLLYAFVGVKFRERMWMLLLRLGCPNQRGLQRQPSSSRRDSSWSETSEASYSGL
# METHOD_DESCRIPTION: Figure S2a opioid peptide screen on chemokine receptors
# Assay type: cell-based
# Design: dose or concentration left out as unconfirmed
# CONDITION_INFO: replicate 1, read-out: CXCR3A activity, ctrl+ = 100
OBSERVABLE: activation (%)
// note: answer is a bare numeric in %

Previously resolved entries follow.
CSCC[C@H](NC(=O)[C@H](Cc1ccccc1)NC(=O)CNC(=O)CNC(=O)[C@@H](N)Cc1ccc(O)cc1)C(=O)N[C@@H](CCCNC(=N)N)C(=O)N[C@@H](CCCNC(=N)N)C(=O)N[C@H](C(N)=O)C(C)C :: -0.787
CC(C)C[C@H](NC(=O)[C@H](CCCCN)NC(=O)[C@H](CCCN=C(N)N)NC(=O)[C@H](C)NC(=O)[C@H](CO)NC(=O)[C@H](CCCCN)NC(=O)[C@H](CCCN=C(N)N)NC(=O)[C@H](C)NC(=O)CNC(=O)[C@@H](NC(=O)[C@H](Cc1ccccc1)NC(=O)CNC(=O)CNC(=O)[C@@H](N)Cc1ccccc1)[C@@H](C)O)C(=O)N[C@@H](C)C(=O)N[C@@H](CC(N)=O)C(=O)N[C@@H](CCC(N)=O)C(=O)O :: -2.21
C[C@H](NC(=O)CNC(=O)[C@@H](NC(=O)[C@H](Cc1ccccc1)NC(=O)CNC(=O)CNC(=O)[C@@H](N)Cc1ccccc1)[C@@H](C)O)C(=O)N[C@@H](CCCNC(=N)N)C(=O)N[C@@H](CCCCN)C(=O)N[C@@H](CO)C(=O)N[C@@H](C)C(=O)N[C@@H](CCCNC(=N)N)C(=O)N[C@@H](CCCCN)C(N)=O :: -0.431
NC(=O)[C@H](Cc1ccccc1)NC(=O)[C@H](Cc1c[nH]c2ccccc12)NC(=O)[C@@H]1CCCN1C(=O)[C@@H](N)Cc1ccc(O)cc1 [Endomorphin-1] :: 3.34
CC[C@H](C)[C@H](NC(=O)[C@H](CCCNC(=N)N)NC(=O)[C@H](CCCNC(=N)N)NC(=O)[C@H](CC(C)C)NC(=O)[C@H](Cc1ccccc1)NC(=O)CNC(=O)CNC(=O)[C@@H](N)Cc1ccc(O)cc1)C(=O)N[C@@H](CCCNC(=N)N)C(=O)N1CCC[C@H]1C(=O)N[C@@H](CCCCN)C(=O)N[C@@H](CC(C)C)C(=O)N[C@@H](CCCCN)C(=O)O :: -2.15

Please turn your attention to the following entry.
Asked: So what's the measured activation for this one? CC(C)C[C@H](NC(=O)[C@H](Cc1ccccc1)NC(=O)CNC(=O)CNC(=O)[C@@H](N)Cc1ccc(O)cc1)C(=O)N[C@@H](CCCN=C(N)N)C(=O)N[C@@H](CCCN=C(N)N)C(=O)N[C@@H](CCC(N)=O)C(=O)N[C@@H](Cc1ccccc1)C(=O)N[C@@H](CCCCN)C(=O)N[C@H](C(=O)N[C@H](C(=O)N[C@H](C(=O)O)[C@@H](C)O)C(C)C)C(C)C
Given back: -2.8

----------
# STUDY_SYSTEM: ACKR2 (Homo sapiens, UniProt O00590)
# Construct: expressed in transfected cells; host or cells: U87 cells (human glioblastoma)
# Sequence (O00590 whole entry): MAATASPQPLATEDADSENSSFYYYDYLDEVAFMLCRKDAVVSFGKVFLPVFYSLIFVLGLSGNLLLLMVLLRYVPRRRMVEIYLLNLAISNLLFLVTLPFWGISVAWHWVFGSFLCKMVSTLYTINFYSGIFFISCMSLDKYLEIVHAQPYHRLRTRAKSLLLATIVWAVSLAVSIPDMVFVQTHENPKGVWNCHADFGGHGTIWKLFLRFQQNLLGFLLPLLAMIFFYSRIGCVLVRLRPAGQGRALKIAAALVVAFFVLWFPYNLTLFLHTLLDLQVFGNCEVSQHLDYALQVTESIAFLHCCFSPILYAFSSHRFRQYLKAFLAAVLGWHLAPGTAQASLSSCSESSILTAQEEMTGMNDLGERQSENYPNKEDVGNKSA
# METHOD_DESCRIPTION: Figure S2a opioid peptide screen on chemokine receptors
# Type: cell-based
# Set-up: dose or concentration left out as unconfirmed
# CONDITION_INFO: replicate 1, read-out: ACKR2 activity, ctrl+ = 100
OBSERVABLE: activation (%)
The answer is to be given in %; state only the numeric part.

Solved entries:
C[C@H](NC(=O)CNC(=O)[C@@H](NC(=O)[C@H](Cc1ccccc1)NC(=O)CNC(=O)CNC(=O)[C@@H](N)Cc1ccccc1)[C@@H](C)O)C(=O)N[C@@H](CCCNC(=N)N)C(=O)N[C@@H](CCCCN)C(=O)N[C@@H](CO)C(=O)N[C@@H](C)C(=O)N[C@@H](CCCNC(=N)N)C(=O)N[C@@H](CCCCN)C(N)=O :: -54.6
NC(=O)[C@H](Cc1ccccc1)NC(=O)[C@H](Cc1c[nH]c2ccccc12)NC(=O)[C@@H]1CCCN1C(=O)[C@@H](N)Cc1ccc(O)cc1 [Endomorphin-1] :: -6
CC[C@H](C)[C@H](NC(=O)[C@H](CCCNC(=N)N)NC(=O)[C@H](CCCNC(=N)N)NC(=O)[C@H](CC(C)C)NC(=O)[C@H](Cc1ccccc1)NC(=O)CNC(=O)CNC(=O)[C@@H](N)Cc1ccc(O)cc1)C(=O)N[C@@H](CCCNC(=N)N)C(=O)N1CCC[C@H]1C(=O)N[C@@H](CCCCN)C(=O)N[C@@H](CC(C)C)C(=O)N[C@@H](CCCCN)C(=O)O :: -0.369

Next item in the queue.
Asked: Form: Entry = CC(C)C[C@H](NC(=O)[C@H](Cc1ccccc1)NC(=O)CNC(=O)CNC(=O)[C@@H](N)Cc1ccc(O)cc1)C(=O)N[C@@H](CCCN=C(N)N)C(=O)N[C@@H](CCCN=C(N)N)C(=O)N[C@@H](CCC(N)=O)C(=O)N[C@@H](Cc1ccccc1)C(=O)N[C@@H](CCCCN)C(=O)N[C@H](C(=O)N[C@H](C(=O)N[C@H](C(=O)O)[C@@H](C)O)C(C)C)C(C)C | System = ACKR2 (Homo sapiens, UniProt O00590) | activation = ____
Given back: -36.9

----------
# STUDY_SYSTEM: XCR1 (Homo sapiens)
# Construct: expressed in transfected cells
# METHOD_DESCRIPTION: Figure S2a opioid peptide screen on chemokine receptors
# Assay type: cell-based
# Design: dose or concentration left out as unconfirmed
# CONDITION_INFO: replicate 2, read-out: XCR1 activity, ctrl+ = 100
OBSERVABLE: activation (%)
Report only the number, with the unit % understood.

CC(C)C[C@H](NC(=O)[C@H](Cc1ccccc1)NC(=O)CNC(=O)CNC(=O)[C@@H](N)Cc1ccc(O)cc1)C(=O)N[C@@H](CCCN=C(N)N)C(=O)N[C@@H](CCCN=C(N)N)C(=O)N[C@@H](CCC(N)=O)C(=O)N[C@@H](Cc1ccccc1)C(=O)N[C@@H](CCCCN)C(=O)N[C@H](C(=O)N[C@H](C(=O)N[C@H](C(=O)O)[C@@H](C)O)C(C)C)C(C)C [Dynorphin B] :: 0.791

Attention now shifts to the item below.
Asked: Quick one: activation of CSCC[C@H](NC(=O)[C@H](Cc1ccccc1)NC(=O)CNC(=O)CNC(=O)[C@@H](N)Cc1ccc(O)cc1)C(=O)N[C@@H](CCCNC(=N)N)C(=O)N[C@@H](CCCNC(=N)N)C(=O)N[C@H](C(N)=O)C(C)C [Adrenorphin] ?
Given back: 2.59

----------
Listed below: activation values for each entry.
# STUDY_SYSTEM: CXCR4 (Homo sapiens)
# Construct: expressed in transfected cells; host or cells: U87, transient cotransfection of pNBe vectors
# Sequence (P61073 whole entry): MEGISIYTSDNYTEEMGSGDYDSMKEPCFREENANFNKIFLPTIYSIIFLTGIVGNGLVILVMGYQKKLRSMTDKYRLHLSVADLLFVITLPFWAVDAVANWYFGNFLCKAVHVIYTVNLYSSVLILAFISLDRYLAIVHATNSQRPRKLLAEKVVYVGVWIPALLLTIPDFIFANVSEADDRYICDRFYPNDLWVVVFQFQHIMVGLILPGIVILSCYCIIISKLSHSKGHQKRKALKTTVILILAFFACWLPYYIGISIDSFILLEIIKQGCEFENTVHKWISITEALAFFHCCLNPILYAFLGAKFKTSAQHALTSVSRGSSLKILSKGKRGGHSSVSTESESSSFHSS
# METHOD_DESCRIPTION: cell-based
# Set-up: dose or concentration left out as unconfirmed
# CONDITION_INFO: Figure S2a; replicate 1; read-out: CXCR4 activity, ctrl+ = 100
// return numeric value only (unit: %, not printed)

Known activation results, listed for orientation:
C[C@H](NC(=O)CNC(=O)[C@@H](NC(=O)[C@H](Cc1ccccc1)NC(=O)CNC(=O)CNC(=O)[C@@H](N)Cc1ccccc1)[C@@H](C)O)C(=O)N[C@@H](CCCNC(=N)N)C(=O)N[C@@H](CCCCN)C(=O)N[C@@H](CO)C(=O)N[C@@H](C)C(=O)N[C@@H](CCCNC(=N)N)C(=O)N[C@@H](CCCCN)C(N)=O :: 20.2
CC(C)C[C@H](NC(=O)[C@H](Cc1ccccc1)NC(=O)CNC(=O)CNC(=O)[C@@H](N)Cc1ccc(O)cc1)C(=O)N[C@@H](CCCN=C(N)N)C(=O)N[C@@H](CCCN=C(N)N)C(=O)N[C@@H](CCC(N)=O)C(=O)N[C@@H](Cc1ccccc1)C(=O)N[C@@H](CCCCN)C(=O)N[C@H](C(=O)N[C@H](C(=O)N[C@H](C(=O)O)[C@@H](C)O)C(C)C)C(C)C :: -12.2
CC[C@H](C)[C@H](NC(=O)[C@H](CCCNC(=N)N)NC(=O)[C@H](CCCNC(=N)N)NC(=O)[C@H](CC(C)C)NC(=O)[C@H](Cc1ccccc1)NC(=O)CNC(=O)CNC(=O)[C@@H](N)Cc1ccc(O)cc1)C(=O)N[C@@H](CCCNC(=N)N)C(=O)N1CCC[C@H]1C(=O)N[C@@H](CCCCN)C(=O)N[C@@H](CC(C)C)C(=O)N[C@@H](CCCCN)C(=O)O :: 13.2
CC[C@H](C)[C@H](NC(=O)[C@H](CCCNC(=N)N)NC(=O)[C@H](CCCNC(=N)N)NC(=O)[C@H](CC(C)C)NC(=O)[C@H](Cc1ccccc1)NC(=O)CNC(=O)CN)C(=O)N[C@@H](CCCNC(=N)N)C(=O)N1CCC[C@H]1C(=O)N[C@@H](CCCCN)C(=O)N[C@@H](CC(C)C)C(=O)N[C@@H](CCCCN)C(=O)N[C@@H](Cc1c[nH]c2ccccc12)C(=O)N[C@@H](CC(=O)O)C(=O)N[C@@H](CC(N)=O)C(=O)N[C@@H](CCC(N)=O)C(=O)O :: -9.77
CC[C@H](C)[C@H](NC(=O)[C@H](CCCNC(=N)N)NC(=O)[C@H](CCCNC(=N)N)NC(=O)[C@H](CC(C)C)NC(=O)[C@H](Cc1ccccc1)NC(=O)CNC(=O)CNC(=O)[C@@H](N)Cc1ccc(O)cc1)C(=O)N[C@@H](CCCNC(=N)N)C(=O)N1CCC[C@H]1C(=O)N[C@@H](CCCCN)C(=O)N[C@@H](CC(C)C)C(=O)N[C@@H](CCCCN)C(=O)N[C@@H](Cc1c[nH]c2ccccc12)C(=O)N[C@@H](CC(=O)O)C(=O)N[C@@H](CC(N)=O)C(=O)N[C@@H](CCC(N)=O)C(=O)O :: -6.67

Then there is this compound:
Asked: Fill in: activation of CSCC[C@H](NC(=O)[C@H](Cc1ccccc1)NC(=O)CNC(=O)CNC(=O)[C@@H](N)Cc1ccc(O)cc1)C(=O)N[C@@H](CCCNC(=N)N)C(=O)N[C@@H](CCCNC(=N)N)C(=O)N[C@H](C(N)=O)C(C)C is ___
Given back: -0.233
